Target: RORγ receptor (Homo sapiens)
Construct: Jurkat pEx/Gal/hRORγ CLBD/HYG pG51uc/blast; expressed in transfected cells
Assay: General RORγ Gal4 reporter assay (inverse agonist activity, inhibition of luminescence)
Assay type: cell-based
Details: Gal4-luciferase reporter in Jurkat cells stably over-expressing hRORγ LBD; overnight incubation; 40 μM to 0.67 nM
RECORDED_METRIC: pIC50
FYI, pIC50 means -log10 of a concentration in mol per litre.

Request - read-out pIC50 | tested on RORγ receptor (Homo sapiens) | compound O=C(O)[C@H]1CC[C@H](C(=O)N2CCC3(S(=O)(=O)c4cccc(F)c4)c4ccc(C(F)(C(F)(F)F)C(F)(F)F)nc4CCC23)CC1 (some centres unmarked) 7.82

Consider next the compound N#CCCN1C(=O)CC[C@H]1C(=O)N1CCC2(S(=O)(=O)c3cccc(F)c3)c3cnc(C(F)(C(F)(F)F)C(F)(F)F)cc3CCC12 (some centres unmarked) in the same way. 8.40

Could you do the same for O=C(O)C12CCC(C(=O)N3CCC4(S(=O)(=O)c5ccccc5)c5ccc(C(F)(C(F)(F)F)C(F)(F)F)nc5CCC34)(CC1)CC2 (centres unmarked) , please? 8.22

Another compound to look at: CC(C)(O)CN1C(=O)CCN1C(=O)N1CCC2(S(=O)(=O)c3ccccc3)c3ccc(C(F)(C(F)(F)F)C(F)(F)F)nc3CCC12 (centres unmarked) 7.92

New cases:
Lab note: need pIC50 with RORγ receptor (Homo sapiens) for entry CC(C)(O)CN1C(=O)[C@@H]2C[C@@H]2[C@H]1C(=O)N1CCC2(S(=O)(=O)c3cccc(F)c3)c3cnc(C(F)(C(F)(F)F)C(F)(F)F)cc3CCC12 (single isomer, unassigned) [Example 51] , please look it up. 7.66

Then this compound: [2H]C([2H])([2H])N1C(=O)[C@H](F)C[C@H]1C(=O)N1CCC2(S(=O)(=O)c3ccccc3)c3ccc(C(F)(C(F)(F)F)C(F)(F)F)nc3CCC12 (some centres unmarked) 7.51

And the next one, C[C@H]1C[C@H](C(=O)O)CC[C@H]1C(=O)N1CCC2(S(=O)(=O)c3ccccc3)c3ccc(C(F)(C(F)(F)F)C(F)(F)F)nc3CCC12 (some centres unmarked) ? 7.89

Moving on to N#CCCN1C(=O)CC[C@H]1C(=O)N1CCC2(S(=O)(=O)c3ccc(F)cc3)c3ccc(C(F)(C(F)(F)F)C(F)(F)F)nc3CCC12 (single isomer, unassigned) 7.37

And for C[C@H]1C[C@H](C(N)=O)CC[C@H]1C(=O)N1CCC2(S(=O)(=O)c3ccc(F)cc3)c3ncc(C(F)(C(F)(F)F)C(F)(F)F)cc3CCC12 (single isomer, unassigned) ? 6.23

Follow-up entry: CC(C)(O)CC(=O)N1CCC2(S(=O)(=O)c3ccccc3)c3ccc(C(F)(C(F)(F)F)C(F)(F)F)nc3CCC12 (centres unmarked) 7.52

Please answer likewise for CC(C)(CO)CN1C(=O)[C@H](F)C[C@H]1C(=O)N1CCC2(S(=O)(=O)c3cccc(F)c3)c3ccc(C(F)(C(F)(F)F)C(F)(F)F)nc3CCC12 (some centres unmarked) 8.05

###

Overview of recorded log10 IC50 for various compounds
Target: RORγ receptor (Homo sapiens, UniProt P51449)
Construct: Jurkat pEx/Gal/hRORγ CLBD/HYG pG51uc/blast; expressed in transfected cells
Sequence (P51449 269-508 limits assumed): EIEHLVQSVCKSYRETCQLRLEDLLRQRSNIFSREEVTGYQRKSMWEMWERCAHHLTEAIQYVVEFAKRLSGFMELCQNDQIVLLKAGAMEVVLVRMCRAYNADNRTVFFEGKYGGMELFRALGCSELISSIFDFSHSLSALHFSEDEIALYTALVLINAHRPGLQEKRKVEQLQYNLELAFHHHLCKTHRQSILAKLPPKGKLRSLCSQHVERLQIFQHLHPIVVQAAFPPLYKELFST
Experiment: General RORγ Gal4 reporter assay (inverse agonist activity, inhibition of luminescence)
Assay type: cell-based
Settings: Gal4-luciferase reporter in Jurkat cells stably over-expressing hRORγ LBD; overnight incubation; 40 μM to 0.67 nM
Structures can show the parent of a compound that is named as a salt.
The base-10 logarithm of IC50, taken with IC50 in nM, is what appears here.

Answered examples (3):
What value of log10 IC50 has been reported for the following compound? CC(C)(O)CN1C(=O)[C@@H]2C[C@@H]2[C@H]1C(=O)N1CCC2(S(=O)(=O)c3cccc(F)c3)c3cnc(C(F)(C(F)(F)F)C(F)(F)F)cc3CCC12 (some centres unmarked) [Example 52] 3.26

Try this compound next: O=C(C1CCS(=O)(=O)CC1)N1CCC2(S(=O)(=O)c3ccccc3)c3ccc(C(F)(C(F)(F)F)C(F)(F)F)nc3CCC12 (centres unmarked) 0.95

Ok, now CC(C)(O)CN1C(=O)[C@H](F)C[C@H]1C(=O)N1CCC2(S(=O)(=O)c3ccccc3)c3ccc(C(F)(C(F)(F)F)C(F)(F)F)nc3CCC12 (some centres unmarked) 1.26

Further cases:
Value lookup for log10 IC50; key = O=C1N[C@H](C(=O)N2CCC3(S(=O)(=O)c4cccc(F)c4)c4ccc(C(F)(C(F)(F)F)C(F)(F)F)nc4CCC23)[C@H]2C[C@@H]12 (single isomer, unassigned) [Example 34, trifluoroacetate] 1.79

# iterate: O=C(O)[C@H]1CC[C@H](C(=O)N2CCC3(S(=O)(=O)c4ccccc4)c4ccc(C(F)(C(F)(F)F)C(F)(F)F)nc4CCC23)CC1 (some centres unmarked) 0.90
